Target: human recombinant OX2 (hOX2) receptor (Homo sapiens, UniProt O43614)
Test: IP-1 accumulation assay (IP-One HTRF) in hOX2-CHO cells
Details: 60 min at 37° C., mean of at least two independent experiments, read-out: EC50_OX2R Category
Give EC50 for every item shown.

Worked cases, EC50 given:
C[C@@H]1C[C@@]2(COCC(=O)N2)[C@H](Cc2cccc(-c3cc(F)cc(F)c3)c2F)N1C(=O)[C@H]1CCO1 [Example 89] ... 100 to 1000 nM
O=C1N[C@]2(CCO1)[C@H](Cc1cccc(-c3cc(F)cc(F)c3)c1F)N(C(=O)[C@H]1C[C@@H](F)C1)CC2(F)F (relative stereo) [Example 79] ... 100 to 1000 nM
C[C@@H]1C[C@@]2(COCC(=O)N2)[C@H](Cc2cccc(-c3cc(F)cc(F)c3)c2F)N1C(=O)C1CC1F (single isomer, unassigned) [Example 91] ... 100 to 1000 nM
CCNC(=O)N1CCCC2(COCS(=O)(=O)N2)C1CO[C@H]1CC[C@@H](c2ccccc2)CC1 (mixture of isomers) [Example 36] ... 100 to 1000 nM

Return reported EC50 values for all items listed beneath this line.
1. CCN(C)C(=O)N1[C@H](C)C[C@@]2(COCC(=O)N2)[C@@H]1Cc1cccc(-c2cc(F)cc(F)c2)c1F [Example 87]
2. CCNC(=O)N1CCC[C@]2(COCC(=O)N2)[C@H]1CO[C@H]1CC[C@@H](c2ccccc2)CC1 (single isomer, unassigned) [Example 2]
3. COC(=O)N1CCC[C@]2(COCC(=O)N2)[C@H]1CO[C@H]1CC[C@@H](c2ccccc2)CC1 (single isomer, unassigned) [Example 5]
4. COC(=O)N1[C@H](C)C[C@@]2(COCC(=O)N2)[C@@H]1Cc1cccc(-c2cc(F)cc(F)c2)c1F [Example 85]

Output:
1: 100 to 1000 nM; 2: 1000 to 10000 nM; 3: > 10000 nM; 4: > 10000 nM

====

Target: human recombinant OX2 (hOX2) receptor (Homo sapiens)
Sequence (O43614 1-444): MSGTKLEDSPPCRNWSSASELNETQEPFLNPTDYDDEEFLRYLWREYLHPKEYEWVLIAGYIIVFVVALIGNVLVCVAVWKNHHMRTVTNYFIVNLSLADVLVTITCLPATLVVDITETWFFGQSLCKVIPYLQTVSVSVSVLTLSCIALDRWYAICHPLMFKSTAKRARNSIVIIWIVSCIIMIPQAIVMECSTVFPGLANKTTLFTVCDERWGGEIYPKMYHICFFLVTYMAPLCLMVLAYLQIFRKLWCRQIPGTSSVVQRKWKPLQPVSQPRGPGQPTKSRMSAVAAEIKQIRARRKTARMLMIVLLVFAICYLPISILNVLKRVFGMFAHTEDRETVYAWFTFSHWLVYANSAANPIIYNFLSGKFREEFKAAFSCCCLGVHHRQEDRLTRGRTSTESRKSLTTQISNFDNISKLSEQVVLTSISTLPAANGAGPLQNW
Assay: IP-1 accumulation assay (IP-One HTRF) in hOX2-CHO cells
Conditions: 60 min at 37° C., mean of at least two independent experiments, read-out: EC50_OX2R Category
pEC50: −log10 of the molar value.
Readout kind: pEC50

Worked cases, pEC50 given:
C[C@@H]1C[C@@]2(COCC(=O)N2)[C@H](CO[C@H]2CC[C@@H](c3ccccc3)CC2)N1C(=O)OCC(F)F [Example 61] ... > 7.00
O=C1COCC2(CCCN(C(=O)[C@H]3C[C@@H](F)C3)C2COC2CCN(c3ncc(F)cn3)CC2)N1 (mixture of isomers) [Example 78] ... 6.00 to 7.00

Consider the additional compound presented here.
Task: I would be grateful if you could share the reported pEC50 for CCNC(=O)N1CCC[C@@]2(CCOC(=O)N2)[C@@H]1CO[C@H]1CC[C@@H](c2ccccc2)CC1 (single isomer, unassigned) [Example 14] .
Output: > 7.00

====

Target: human recombinant OX2 (hOX2) receptor (Homo sapiens, UniProt O43614)
Assay: IP-1 accumulation assay (IP-One HTRF) in hOX2-CHO cells
Conditions: 60 min at 37° C., mean of at least two independent experiments, read-out: EC50_OX2R Category
pEC50: −log10 of the molar value.
Readout kind: pEC50

Return reported pEC50 values for all items listed beneath this line.
1. CCNC(=O)N1CCC[C@]2(CCOC(=O)N2)[C@H]1Cc1cccc(-c2ccccc2)c1
2. O=C1N[C@@]2(CCCN(C(=O)[C@H]3C[C@@H](F)C3)[C@@H]2CO[C@H]2CC[C@@H](c3ccccc3)CC2)CCO1 (single isomer, unassigned)
3. O=C1COC[C@]2(CCCN(C(=O)C3CC3)[C@@H]2CO[C@H]2CC[C@@H](c3ccccc3)CC2)N1 (single isomer, unassigned)
4. CCNC(=O)N1CCCC2(CCCC(=O)N2)C1CO[C@H]1CC[C@@H](c2ccccc2)CC1 (mixture of isomers)
5. CCNC(=O)N1CCC2(COCC(=O)N2)C1CO[C@H]1CC[C@@H](c2ccccc2)CC1 (mixture of isomers)
6. CCNC(=O)N1CCC[C@@]2(COC(C)C(=O)N2)[C@@H]1CO[C@H]1CC[C@@H](c2ccccc2)CC1 (single isomer, unassigned)
7. CCNC(=O)N1CC[C@@]2(COCC(=O)N2)[C@@H]1CO[C@H]1CC[C@@H](c2ccccc2)CC1 (single isomer, unassigned)
8. O=C1COC[C@@]2(C[C@@H](C(F)F)N(C(=O)[C@H]3C[C@@H](F)C3)[C@H]2Cc2cccc(-c3cc(F)cc(F)c3)c2F)N1

Output:
1. < 5.00
2. < 5.00
3. < 5.00
4. > 7.00
5. 5.00 to 6.00
6. > 7.00
7. 6.00 to 7.00
8. 6.00 to 7.00

====

Molecular target: human recombinant OX2 (hOX2) receptor (Homo sapiens)
Sequence (O43614 1-444): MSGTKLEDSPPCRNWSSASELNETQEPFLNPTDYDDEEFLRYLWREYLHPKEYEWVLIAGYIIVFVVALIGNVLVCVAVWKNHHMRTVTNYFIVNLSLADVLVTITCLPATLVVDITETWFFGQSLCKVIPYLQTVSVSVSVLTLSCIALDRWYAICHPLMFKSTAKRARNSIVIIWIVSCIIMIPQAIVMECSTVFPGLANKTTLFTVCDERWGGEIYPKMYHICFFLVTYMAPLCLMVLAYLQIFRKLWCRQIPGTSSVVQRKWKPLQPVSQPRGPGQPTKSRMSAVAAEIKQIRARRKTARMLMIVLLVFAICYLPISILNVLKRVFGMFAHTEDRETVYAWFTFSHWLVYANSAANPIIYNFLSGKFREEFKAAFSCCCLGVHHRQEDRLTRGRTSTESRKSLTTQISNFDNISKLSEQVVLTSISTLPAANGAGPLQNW
Test: IP-1 accumulation assay (IP-One HTRF) in hOX2-CHO cells
Conditions: 60 min at 37° C., mean of at least two independent experiments, read-out: EC50_OX2R Category
pEC50: −log10 of the molar value.
Readout kind: pEC50

Worked cases, pEC50 given:
C[C@@H]1C[C@@]2(COCC(=O)N2)[C@H](Cc2cccc(-c3cc(F)cc(F)c3)c2F)N1C(=O)C1CCC1 [Example 81] ... > 7.00
COC(=O)N1CCC[C@]2(CCOC(=O)N2)[C@H]1Cc1cccc(-c2ccccc2)c1 (single isomer, unassigned) [Example 20] ... < 5.00
COC(=O)N1CCCC2(COCC(=O)N2)C1CO[C@H]1CC[C@@H](c2ccccc2)CC1 (mixture of isomers) [Example 4] ... 5.00 to 6.00
C[C@@H]1C[C@@]2(COCC(=O)N2)[C@H](CO[C@H]2CC[C@@H](c3ccccc3)CC2)N1C(=O)NCC(F)(F)F [Example 62] ... > 7.00

Consider the additional compound presented here.
Task: I would be grateful if you could share the reported pEC50 for C[C@@H]1C[C@@]2(COCC(=O)N2)[C@H](Cc2cccc(-c3cc(F)cc(F)c3)c2F)N1C(=O)C(C)(C)O [Example 54] .
Output: 6.00 to 7.00

====

Target: human recombinant OX2 (hOX2) receptor (Homo sapiens, UniProt O43614)
Assay: IP-1 accumulation assay (IP-One HTRF) in hOX2-CHO cells
Details: 60 min at 37° C., mean of at least two independent experiments, read-out: EC50_OX2R Category
pEC50: −log10 of the molar value.
Give pEC50 for every item shown.

COC(=O)N1CCCC2(CCOC(=O)N2)C1Cc1cccc(-c2ccccc2)c1 (stereo not drawn) [Example 19] ... < 5.00
C[C@@H]1C[C@@]2(COCC(=O)N2)[C@H](CO[C@H]2CC[C@@H](c3ccccc3)CC2)N1C(=O)N1CC(F)(F)C1 [Example 52] ... 5.00 to 6.00
COCC(=O)N1[C@H](C)C[C@@]2(COCC(=O)N2)[C@@H]1Cc1cccc(-c2cc(F)cc(F)c2)c1F [Example 88] ... 5.00 to 6.00
CCNC(=O)N1CCC[C@@]2(CCCC(=O)N2)[C@@H]1CO[C@H]1CC[C@@H](c2ccccc2)CC1 (single isomer, unassigned) [Example 35] ... > 7.00
CCNC(=O)N1CCC(F)(F)[C@]2(CCOC(=O)N2)[C@H]1CO[C@H]1CC[C@@H](c2ccccc2)CC1 (single isomer, unassigned) [Example 46] ... < 5.00
CCNC(=O)N1CC[C@]2(COCC(=O)N2)[C@H]1CO[C@H]1CC[C@@H](c2ccccc2)CC1 (single isomer, unassigned) [Example 17] ... < 5.00
CCNC(=O)N1CCC[C@]2(COC(F)C(=O)N2)[C@H]1CO[C@H]1CC[C@@H](c2ccccc2)CC1 (single isomer, unassigned) [Example 42] ... 5.00 to 6.00
CCNC(=O)N1CCC[C@@]2(COCC(=O)N2)[C@@H]1CO[C@H]1CC[C@@H](c2ccccc2)CC1 (single isomer, unassigned) [Example 3] ... > 7.00

Return reported pEC50 values for all items listed beneath this line.
1. CCNC(=O)N1CCC(F)(F)[C@@]2(CCOC(=O)N2)[C@@H]1CO[C@H]1CC[C@@H](c2ccccc2)CC1 (single isomer, unassigned) [Example 45]
2. CCNC(=O)N1CCC[C@@]2(CCOC(=O)N2)[C@@H]1Cc1cccc(-c2ccccc2)c1 [Example 27]
3. O=C1COC[C@]2(CCN(C(=O)[C@H]3C[C@@H](F)C3)[C@@H]2Cc2cccc(-c3cc(F)cc(F)c3)c2F)N1 (single isomer, unassigned) [Example 73]
4. O=C1N[C@]2(CCCN(C(=O)[C@H]3C[C@@H](F)C3)[C@H]2CO[C@H]2CC[C@@H](c3ccccc3)CC2)CCO1 (single isomer, unassigned) [Example 66]

Output:
> 7.00
6.00 to 7.00
< 5.00
> 7.00
